Test: Pharmacokinetic assay, intravenous 2 mg/kg, LC-MS/MS
Assay type: in vivo
Details: mouse, plasma, CD1 mice, read-out: Half-life (in vivo plasma)
Test Readout: half-life (min)
Your answer is read as min, so omit the unit and give the number.

Return value of half-life for input Ac-LLLLRVKR-NH2 [Ac-LLLLRVKR-NH2] , no commentary. 8
